Tested on: HCT-116
Test: inhibitory activity of compound against multidrug resistance HCT116/VM46 cell line treated with Doxorubicin
Format: functional, cell-based
Settings: Homo sapiens
READOUT_KIND: pIC50
// field semantics: pIC50 = negative decimal log of concentration (mol/L)

Item under review: COc1ccc(C2CC2NNC(=O)c2c(-c3ccc(OC)c(OC)c3)c3c4cc(OC)c(OC)cc4oc(=O)c3n2CCc2ccc(OC)c(OC)c2)cc1 (stereo unspecified) . Reported pIC50?
7.00
